The measurements presented in this section are drawn from the supplement of paper PMC5579334.

test system: YST-1; test: % inhibition of CellTiter-Glo viability at highest tested concentration (72 h), relative to DMSO and benzethonium chloride controls; higher = more inhibition
Label fulfilled for high-side % inhibition (at or above 60%) and not fulfilled for low-side % inhibition (below it).

Molecule	Group
CO[C@H]1C[C@@H]2CC[C@@H](C)[C@@](O)(O2)C(=O)C(=O)N2CCCC[C@H]2C(=O)O[C@H]([C@H](C)C[C@@H]2CC[C@@H](OCCO)[C@H](OC)C2)CC(=O)[C@H](C)/C=C(\C)[C@@H](O)[C@@H](OC)C(=O)[C@H](C)C[C@H](C)/C=C/C=C/C=C/1C [Everolimus] (max concentration tested 100 nM)	not fulfilled
O=c1[nH]c(=O)n([C@H]2C[C@H](O)[C@@H](CO)O2)cc1F [Floxuridine] (max concentration tested 10000 nM)	fulfilled
Cc1cc(Nc2cc(N3CCN(C)CC3)nc(Sc3ccc(NC(=O)C4CC4)cc3)n2)n[nH]1 [Tozasertib] (max concentration tested 10000 nM)	not fulfilled
CNC(=O)c1c(F)cccc1Nc1nc(Nc2cc3c(cc2OC)CCN3C(=O)CN(C)C)nc2[nH]ccc12 (max concentration tested 2500 nM)	fulfilled
Cc1c(N)nc([C@H](CC(N)=O)NC[C@H](N)C(N)=O)nc1C(=O)N[C@H](C(=O)N[C@H](C)[C@@H](O)[C@H](C)C(=O)N[C@H](C(=O)NCCc1nc(-c2nc(C(=O)NCCC[S+](C)C)cs2)cs1)[C@@H](C)O)[C@@H](O[C@@H]1O[C@@H](CO)[C@@H](O)[C@H](O)[C@@H]1O[C@H]1O[C@H](CO)[C@@H](O)[C@H](OC(N)=O)[C@@H]1O)c1c[nH]cn1 [Bleomycin] (max concentration tested 10000 nM)	fulfilled
Nc1cccc2c1CN(C1CCC(=O)NC1=O)C2=O (stereo unspecified) [Lenalidomide] (max concentration tested 100000 nM)	not fulfilled
CNC(=O)c1cc(Oc2ccc(NC(=O)Nc3cc(C(C)(C)C)nn3-c3ccc4ncccc4c3)c(F)c2)ccn1 [Rebastinib] (max concentration tested 1000 nM)	not fulfilled
C[C@H]1C=C2C(=O)O[C@H]3CC[C@@H](C1)[C@@]23O [Galiellalactone] (max concentration tested 25000 nM)	fulfilled
Cc1cc(C(=O)NOCCO)c(Nc2ccc(I)cc2F)n(C)c1=O [AZD-8330] (max concentration tested 10000 nM)	not fulfilled
CCNC(=O)C[C@@H]1N=C(c2ccc(Cl)cc2)c2cc(OC)ccc2-n2c(C)nnc21 (max concentration tested 10000 nM)	fulfilled
COc1cc(Nc2ncc3c(n2)-c2ccc(Cl)cc2C(c2c(F)cccc2OC)=NC3)ccc1C(=O)O [Alisertib] (max concentration tested 10000 nM)	not fulfilled
